Entry source: patent US20250333389A1

biological target: human Hv1 channel (Homo sapiens, UniProt Q96D96); construct: expressed in transfected cells; host or cells: HEK293T; assay: Whole cell patch clamp recording of Hv1 proton currents in transfected HEK293T cells; type: cell-based; settings: calculated as Ki=Koff/Kon; I-V plot, −20 mV; read-out: inhibition constant Ki for Hv1 channels
Sequence (Q96D96 whole entry): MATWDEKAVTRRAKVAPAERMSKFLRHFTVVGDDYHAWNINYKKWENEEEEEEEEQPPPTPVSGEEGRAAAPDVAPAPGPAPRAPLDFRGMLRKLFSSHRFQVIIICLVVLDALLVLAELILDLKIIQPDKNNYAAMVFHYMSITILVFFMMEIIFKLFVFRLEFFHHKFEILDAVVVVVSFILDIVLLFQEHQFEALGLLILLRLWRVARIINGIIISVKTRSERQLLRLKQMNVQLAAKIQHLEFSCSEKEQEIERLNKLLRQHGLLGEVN
measurementKind: Ki (nM)

(P) CC(C)(C)OC(=O)N1[C@H](CO)CS[C@@H]1c1ccccc1
(Q) O=C(O)[C@@H]1CS[C@H](c2ccccc2)N1
Exercise: Could you please tell me which of these two has the higher Ki: P or Q ? Your answer should be the label of the entry you select.
Key: Q
(Q: 20 nM, P: 3 nM)

* * *

target: human Hv1 channel (Homo sapiens, UniProt Q96D96); construct: expressed in transfected cells; host or cells: HEK293T; assay: Whole cell patch clamp recording of Hv1 proton currents in transfected HEK293T cells; format: cell-based; conditions: calculated as Ki=Koff/Kon; read-out: inhibition constant Ki for Hv1 channels
measurementKind: Ki (µM)
Give the value, in units of µM, as a plain number.

Ki reported for this compound C=C[C@@H]1CS[C@H](c2ccccc2)N1C(=O)OC(C)(C)C : 3
